Test system: OVCAR-8 ovarian
EXPERIMENT_DESCRIPTION: NCI-60 one-dose screen, 48 h (100 = growth as untreated, 0 = no growth, -100 = all killed)
MEASUREMENT_CONTEXT: 10 µM unless noted
This is part of a sample that, as a whole, favours compounds with a hit. Of some 83,000 tested, about 20% had one in any assay.
# note: boundary value 30% maps to No; growth below it maps to Yes

Quick check: growth of CCOC(=O)CC(=O)c1c(C)cc(C)cc1C under 30%?
No

Say whether its growth is strictly beneath 30%. Entry: O=c1c2c3c(sc2n2c(CCl)nnc2n1Cc1ccccc1)CCCC3
Yes

Regarding O=C(/C=C/c1ccc(Cl)cc1)c1ccc(O)c(CN2CCN(c3cc4c(cc3F)c(=O)c(C(=O)O)cn4C3CC3)CC2)c1 , kindly confirm whether its growth is beneath 30%.
Yes

Just wondering, is growth of Cc1cc2cc3cc(C)c(N(C)C)cc3nc2cc1N(C)C below 30%?
Yes

Hi there! Is growth for CCOC(=O)Cc1cnn(C)c1NC(=O)c1ccc(Cl)cc1NC(C)=O below 30%, do you know?
No

Lab note: confirm whether the reported growth for this molecule is below 30%, equality not counting. molecule: C=C1CC[C@@H]2[C@](C)(COC(C)=O)[C@H](OC(C)=O)CC[C@@]2(C)[C@@H]1CC(Nc1ccc(S(=O)(=O)Nc2nc(C)cc(C)n2)cc1)C1=CCOC1=O (stereo partly specified)
No

Here's an entry: CCOc1ccc(Nc2nc(-c3c(C)nc4ncccn34)cs2)cc1 . Is its growth below 30%?
Yes

Record COc1ccc(-c2cn3c(ccc4ccccc43)n2)cc1 : is its growth strictly below 30%?
No

Please let me know if COc1nc2c(cc1S(=O)(=O)c1ccccc1)CCc1c-2cnn1-c1ccc(Cl)cc1 shows growth below 30%.
No

Given CCOC(=O)c1nc(Nc2cc(C)[nH]n2)c2ccccc2n1 , is recorded growth strictly lower than 30%?
No

Say whether its growth is strictly beneath 30%. Entry: O=C(Nc1ccc(CN2CCOCC2)cc1)c1[nH]ncc1Nc1ncnc2sccc12
Yes

Could you please tell me whether growth recorded for CC(C)n1cc2c(N)ncnc2n1 is less than 30%?
No

Say whether its growth is strictly beneath 30%. Entry: C/C=C/C(N)=O
No

Determine whether this molecule shows growth lower than 30% (ties excluded): COc1cc(-c2cnc3nonc3n2)c(OC)c2c1OCO2
No

Dear reviewer, please state whether C=CC[N+]1(CC)CCN=C1CCCCCCCCCCCCCCCCC (stereo unspecified) has growth strictly beneath 30%.
Yes

Strictly below 30% in growth? O=C1Nc2ccccc2C12CC(c1ccccc1)=NN2 (stereo unspecified)
No

Just wondering, is growth of CCCCCCCCOC(=O)CC[C@@H](C)[C@H]1CC[C@H]2[C@@H]3[C@H](OC(=O)CCN)C[C@@H]4C[C@H](OC(=O)CCN)CC[C@]4(C)[C@H]3C[C@H](OC(=O)CCN)[C@]12C below 30%?
No

Given the entry CC1=CC(=O)CC(C)(C)[C@@]1(O)/C=C/[C@@H](C)O , would its reported growth be below 30%?
No

Decide: growth of Cc1ccc(S(=O)(=O)n2cc(-c3csc(-c4cn(C)c5ncccc45)n3)c3ccccc32)cc1 strictly below 30%?
No

Quick check: growth of COCCOC(=O)C1=C(C)NC(=S)NC1c1ccc2c(c1)OCO2 (stereo unspecified) under 30%?
No

is_below(growth, 30%) for O=C(CN1CCOCC1)Nc1ccc(Cn2nnc3c2C(=O)c2nnn(Cc4ccc(NC(=O)CN5CCOCC5)cc4)c2C3=O)cc1 ?
Yes

Provenance of the data: PubChem BioAssay (NCI)
